- System tested: Matrix metalloproteinase-14 (Homo sapiens)
- Experiment description: Inhibition of human recombinant MMP14 using Mca-Lys-Pro-Leu-Gly-Leu-Dpa-Ala-Arg-NH2 as substrate by fluorescence plate reader analysis
Experimental endpoint: IC50 (nM)
Hi! Could you send only the number? It should be in nM, unit omitted.

Enquiry: Quick one: IC50 for N[C@@H](CCCCNC(=O)c1ccc2c(c1)C(=O)OC21c2ccc(O)cc2Oc2cc(O)ccc21)C(=O)N1CCC(C(=O)NO)(S(=O)(=O)c2ccc(Oc3ccc(OC(F)(F)F)cc3)cc2)CC1 ?
Return: 100

###

- System tested: 72 kDa type IV collagenase (Homo sapiens, UniProt P08253)
- Sequence (P08253 whole entry): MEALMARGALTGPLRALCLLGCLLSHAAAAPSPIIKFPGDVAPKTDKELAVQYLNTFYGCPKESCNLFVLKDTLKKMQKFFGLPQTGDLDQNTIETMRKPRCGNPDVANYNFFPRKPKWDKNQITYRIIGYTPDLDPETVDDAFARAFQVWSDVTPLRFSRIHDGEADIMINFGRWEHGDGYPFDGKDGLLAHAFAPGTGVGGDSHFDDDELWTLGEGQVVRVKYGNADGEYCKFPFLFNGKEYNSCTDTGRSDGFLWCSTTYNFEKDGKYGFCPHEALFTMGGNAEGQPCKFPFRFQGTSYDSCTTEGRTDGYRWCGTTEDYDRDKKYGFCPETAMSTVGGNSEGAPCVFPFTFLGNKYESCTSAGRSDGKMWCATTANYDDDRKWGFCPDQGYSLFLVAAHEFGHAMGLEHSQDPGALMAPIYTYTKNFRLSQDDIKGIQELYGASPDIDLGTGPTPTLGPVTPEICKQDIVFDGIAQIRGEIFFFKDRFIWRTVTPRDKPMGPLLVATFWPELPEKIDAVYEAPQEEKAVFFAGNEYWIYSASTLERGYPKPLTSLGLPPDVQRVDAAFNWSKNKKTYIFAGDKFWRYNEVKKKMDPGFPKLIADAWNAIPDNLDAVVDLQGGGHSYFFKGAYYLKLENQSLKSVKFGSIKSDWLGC
- Experiment description: Inhibition of human recombinant MMP2 using Mca-Lys-Pro-Leu-Gly-Leu-Dpa-Ala-Arg-NH2 as substrate by fluorescence plate reader analysis
Exercise: state measured IC50 for each of the compounds provided.
// return numeric value only (unit: nM, not printed)

Enquiry: Form field: reported IC50 of CC1(C)C(/C=C/C2=C(N3CCC(C(=O)NO)(S(=O)(=O)c4ccc(Oc5ccc(OC(F)(F)F)cc5)cc4)CC3)C(=C/C=C3/N(CCCCS(=O)(=O)O)c4ccccc4C3(C)C)/CCC2)=[N+](CCCCS(=O)(=O)[O-])c2ccccc21
Return: 2.8

Enquiry: // query IC50 value for entry CN(C)c1ncc(N2CCC(C(=O)NO)(S(=O)(=O)c3ccc(Oc4ccc(OC(F)(F)F)cc4)cc3)CC2)nc1C#N
Return: 1.6

Enquiry: Which IC50 value belongs to CC(C)(C)NC(=O)c1nc(N)c(C(=O)NCCC(=O)N2CCC(C(=O)NO)(S(=O)(=O)c3ccc(Oc4ccc(OC(F)(F)F)cc4)cc3)CC2)nc1N ?
Return: 5.1
